molecular target: DNA dC->dU-editing enzyme APOBEC-3F (Homo sapiens) (UniProt Q8IUX4); assay: qHTS for inhibitors of Vif-A3F interactions: Cherry picks counterscreen; details: HeLa A3F-eYFP/Vif cells, eYFP fluorescence, 24 h; series mostly up to 46.1 µM; note: nearly all actives have a fitted effect of over 65% in size
Sequence (Q8IUX4 whole entry, looked up): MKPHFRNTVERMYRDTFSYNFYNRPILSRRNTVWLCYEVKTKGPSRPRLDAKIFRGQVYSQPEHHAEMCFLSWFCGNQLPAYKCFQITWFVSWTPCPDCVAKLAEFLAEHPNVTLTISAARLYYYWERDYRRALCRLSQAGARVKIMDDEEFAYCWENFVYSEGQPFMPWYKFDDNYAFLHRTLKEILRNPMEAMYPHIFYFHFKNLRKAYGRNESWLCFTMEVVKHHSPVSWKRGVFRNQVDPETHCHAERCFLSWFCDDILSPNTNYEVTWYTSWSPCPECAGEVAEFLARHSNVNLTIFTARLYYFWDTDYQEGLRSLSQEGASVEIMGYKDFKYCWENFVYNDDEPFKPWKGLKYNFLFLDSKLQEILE
The campaign covered roughly 2,100 compounds. About 1,100 (52%) were called active. Another 29% or so got no clear call; they are omitted. Calls come from the whole dose curve; as a rule, active = well fitted inhibition curve with a large enough effect; inconclusive = small, poorly fitted or top-dose-only effect; inactive = no such curve, though single readings can be large or run the other way. The set was probably picked from earlier hits. The list shows a part of the results.
Hi! Could you answer with just one of these? 1 (yes) (active), 0 (no) (inactive)

Examples with answers:
{"SMILES_STRING": "COc1ccc(C(=O)N/N=C/c2ccccc2OC(=O)c2ccccc2)cc1", "ASSIGNED_LABEL": "1 (yes)"}
{"SMILES_STRING": "CCCCn1c(N)c(N(CCC(C)C)C(=O)c2ccc([N+](=O)[O-])o2)c(=O)[nH]c1=O", "ASSIGNED_LABEL": "0 (no)"}
{"SMILES_STRING": "NC(=S)N/N=C/c1ccccc1OC(=O)/C=C/c1ccccc1", "ASSIGNED_LABEL": "0 (no)"}
{"SMILES_STRING": "O=C(NC(=S)Nc1ccc(-c2ccccc2)cc1)c1ccccc1", "ASSIGNED_LABEL": "0 (no)"}
{"SMILES_STRING": "O=C(Nc1ccccc1OC(=O)c1ccccc1)c1ccccc1", "ASSIGNED_LABEL": "1 (yes)"}

Now take the following compound into account.
stdin: Call for entry "CCN(CC(=O)NCc1ccc(F)cc1)C(=O)/C=C/c1ccc(OC)c(S(=O)(=O)NC(C)C)c1" :
stdout: 1 (yes)

---

molecular target: DNA dC->dU-editing enzyme APOBEC-3F (Homo sapiens) (UniProt Q8IUX4); assay: qHTS for inhibitors of Vif-A3F interactions: Cherry picks counterscreen; details: HeLa A3F-eYFP/Vif cells, eYFP fluorescence, 24 h; series mostly up to 46.1 µM; note: nearly all actives have a fitted effect of over 65% in size
The campaign covered roughly 2,100 compounds. About 1,100 (52%) were called active. Another 29% or so got no clear call; they are omitted. Calls come from the whole dose curve; as a rule, active = well fitted inhibition curve with a large enough effect; inconclusive = small, poorly fitted or top-dose-only effect; inactive = no such curve, though single readings can be large or run the other way. So high a share suggests a set chosen from earlier hits. This is one part of the list.
Output constraint: value belongs to active, inactive

Observe how each entry below is paired with its result.
{"COMPOUND": "Cc1cccc(CSc2nc(-c3cccs3)ccc2C#N)c1", "ASSIGNED_LABEL": "inactive"}
{"COMPOUND": "CN(C)c1ccc(/C=C(/C(=O)c2ccc(Cl)cc2Cl)n2cncn2)cc1", "ASSIGNED_LABEL": "active"}
{"COMPOUND": "N#Cc1ccc(-c2cccs2)nc1SCc1c(F)cccc1Cl", "ASSIGNED_LABEL": "active"}
{"COMPOUND": "COc1cc(-c2cc(NC=O)c3ncc(-c4ccc(C(C)=O)cc4)n3c2)cc(OC)c1OC", "ASSIGNED_LABEL": "active"}
{"COMPOUND": "CN(C)c1ccc(C2C=C(c3ccccc3)Nc3nnnn32)cc1 (stereo not given)", "ASSIGNED_LABEL": "active"}
{"COMPOUND": "CCCCN1C(=O)/C(=C2/Sc3ccccc3N2C)S/C1=N\\c1ncn[nH]1", "ASSIGNED_LABEL": "active"}
{"COMPOUND": "O=C(Cn1ncc(Cl)c(Cl)c1=O)Nc1ccc2c(c1)OCO2", "ASSIGNED_LABEL": "active"}
{"COMPOUND": "Cc1cc(C)cc(NC(=O)Cn2c(=O)oc3cc(S(=O)(=O)N4CCC(C)CC4)ccc32)c1", "ASSIGNED_LABEL": "active"}

stdin: Which outcome was entered for the compound O=S(=O)(Nc1nc2n(n1)C(c1ccccc1)C=C(c1ccc(Cl)cc1)N2)c1ccccc1 (stereo not given) in this test?
stdout: inactive

stdin: Assay result, entry "COc1cc(/C=C/c2ccnc3ccccc23)ccc1N(C)C" — outcome?
stdout: active

Origin of the recorded values: PubChem BioAssay AID651815
